- ASSAYED_TARGET: IKKε (Homo sapiens (Human), UniProt Q14164)
- Sequence (Q14164 whole entry): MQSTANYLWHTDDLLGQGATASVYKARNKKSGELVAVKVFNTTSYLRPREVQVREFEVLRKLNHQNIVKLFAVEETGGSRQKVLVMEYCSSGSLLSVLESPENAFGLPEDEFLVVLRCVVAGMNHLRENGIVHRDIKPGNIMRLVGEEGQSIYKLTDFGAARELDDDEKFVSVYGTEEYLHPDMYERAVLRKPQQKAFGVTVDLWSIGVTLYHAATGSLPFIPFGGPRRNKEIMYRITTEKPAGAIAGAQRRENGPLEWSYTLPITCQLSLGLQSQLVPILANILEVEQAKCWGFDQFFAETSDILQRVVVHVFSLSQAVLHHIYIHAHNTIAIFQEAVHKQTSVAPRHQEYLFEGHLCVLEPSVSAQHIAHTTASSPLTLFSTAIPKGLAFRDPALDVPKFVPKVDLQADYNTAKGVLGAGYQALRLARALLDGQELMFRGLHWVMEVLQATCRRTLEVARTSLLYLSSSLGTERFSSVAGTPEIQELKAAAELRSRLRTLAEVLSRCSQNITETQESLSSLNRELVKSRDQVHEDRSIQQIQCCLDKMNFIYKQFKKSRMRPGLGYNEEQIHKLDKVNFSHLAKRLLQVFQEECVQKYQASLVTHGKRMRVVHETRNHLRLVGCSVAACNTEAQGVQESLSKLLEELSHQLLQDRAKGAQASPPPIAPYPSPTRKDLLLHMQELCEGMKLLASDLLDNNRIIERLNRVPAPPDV
- MEASUREMENT_NOTES: IKKε TR-FRET enzymatic assay
- Type: biochemical
- EXPERIMENTAL_CONDITIONS: TR-FRET, 2×Km ATP; geometric mean of minimum four determinations; read-out: IKKe IC50
MEASUREMENT_LABEL: IC50 (nM)

[[record]]
compound = "C[C@H](O)C(=O)N1CC[C@H](Oc2ccc(-c3ncnc(Nc4ccc(-n5ccnc5)cc4)n3)cc2C#N)[C@H](F)C1 [Example 554]"
assay_value = 4

[[record]]
compound = "N#Cc1cc(-c2ncnc(Nc3ccc(N4CCN(C5COC5)CC4)cc3)n2)ccc1O[C@H]1CCN(C(=O)NCCO)C[C@H]1F [Example 429]"
assay_value = 33

[[record]]
compound = "N#Cc1cc(-c2ncnc(Nc3ccc(N4CCN(C5COC5)CC4)cc3)n2)ccc1O[C@H]1CCN(C(=O)c2cnc(N)[nH]2)C[C@H]1F [Example 559]"
assay_value = 2


###

- ASSAYED_TARGET: TBK1 (Homo sapiens (Human), UniProt Q9UHD2)
- Sequence (Q9UHD2 whole entry): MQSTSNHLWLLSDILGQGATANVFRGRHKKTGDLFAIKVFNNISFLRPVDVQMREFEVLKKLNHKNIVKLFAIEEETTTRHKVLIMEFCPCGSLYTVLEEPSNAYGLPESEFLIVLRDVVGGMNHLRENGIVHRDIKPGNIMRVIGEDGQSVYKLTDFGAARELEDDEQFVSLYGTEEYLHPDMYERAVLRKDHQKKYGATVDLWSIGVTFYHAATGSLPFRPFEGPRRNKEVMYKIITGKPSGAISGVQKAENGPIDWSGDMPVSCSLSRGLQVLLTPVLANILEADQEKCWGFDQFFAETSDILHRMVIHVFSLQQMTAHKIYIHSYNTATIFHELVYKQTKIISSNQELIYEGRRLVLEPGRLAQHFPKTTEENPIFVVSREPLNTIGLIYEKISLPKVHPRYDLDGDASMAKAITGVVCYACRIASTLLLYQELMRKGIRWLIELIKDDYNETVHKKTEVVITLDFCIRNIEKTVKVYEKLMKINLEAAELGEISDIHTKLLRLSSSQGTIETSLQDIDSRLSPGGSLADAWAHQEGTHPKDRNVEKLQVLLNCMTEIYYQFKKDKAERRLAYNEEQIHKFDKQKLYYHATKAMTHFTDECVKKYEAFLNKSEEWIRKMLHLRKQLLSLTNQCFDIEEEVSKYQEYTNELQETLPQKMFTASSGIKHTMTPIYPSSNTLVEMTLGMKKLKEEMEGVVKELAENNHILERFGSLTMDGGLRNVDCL
- MEASUREMENT_NOTES: TBK1 TR-FRET enzymatic assay;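 note: phosphorylation of a biotinylated Ser/Thr peptide by purified full-length recombinant TBK1, read by TR-FRET after 240 min at 25 °C, IC50 is the geometric mean of at least four runs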
MEASUREMENT_LABEL: IC50

[[record]]
compound = "CS(=O)(=O)c1ccc(Nc2ncnc(-c3ccc(OC4CCOCC4)c(C#N)c3)n2)cc1 [Example 50]"
assayed_target = "TBK1 (Homo sapiens (Human), UniProt Q9UHD2)"
measurement_label = "IC50"
assay_value = "5 nM"

[[record]]
compound = "C[C@H]1C[C@@H](O)CN1c1ccc(-c2ncnc(Nc3ccc(N4CCN(C5COC5)CC4)cc3)n2)cc1C#N [Example 205]"
assayed_target = "TBK1 (Homo sapiens (Human), UniProt Q9UHD2)"
measurement_label = "IC50"
assay_value = "1 nM"

[[record]]
compound = "N#Cc1cc(-c2ncnc(Nc3ccc(N4CCN(C5COC5)CC4)cc3)n2)ccc1O[C@H]1CCN(C(=O)[C@@H]2CC(=O)N2)C[C@H]1F [Example 529]"
assayed_target = "TBK1 (Homo sapiens (Human), UniProt Q9UHD2)"
measurement_label = "IC50"
assay_value = "3 nM"

[[record]]
compound = "CC1(C)CN(C(=O)CC#N)C[C@@H](F)[C@H]1Oc1ccc(-c2ncnc(Nc3ccc(N4CCN(C5COC5)CC4)cc3)n2)cc1C#N [Example 450]"
assayed_target = "TBK1 (Homo sapiens (Human), UniProt Q9UHD2)"
measurement_label = "IC50"
assay_value = "3 nM"


###

- ASSAYED_TARGET: IKKε (Homo sapiens (Human), UniProt Q14164)
- MEASUREMENT_NOTES: IKKε TR-FRET enzymatic assay
- Assay type: biochemical
- EXPERIMENTAL_CONDITIONS: TR-FRET, 2×Km ATP; geometric mean of minimum four determinations; read-out: IKKe IC50
MEASUREMENT_LABEL: log10 IC50 (log10 of the value in nM)

[[record]]
compound = "Cc1cc(Nc2ncnc(-c3ccc(O[C@H]4CCN(C(=O)[C@@H]5CCC(=O)N5)C[C@H]4F)c(C#N)c3)n2)ccc1N1CCN(C2COC2)CC1"
measurement_label = "log10 IC50"
assay_value = 0.00

[[record]]
compound = "N#Cc1cc(-c2ncnc(Nc3ccc(N4CCN(C5COC5)CC4)cc3)n2)ccc1O[C@H]1CCN(C(=O)[C@H]2CNC(=O)C2)C[C@H]1F"
measurement_label = "log10 IC50"
assay_value = 2.24

[[record]]
compound = "CC(C)(C)n1cc(Nc2ncnc(-c3ccc(O[C@H]4CCN(C(=O)CC#N)C[C@H]4F)c(C#N)c3)n2)cn1"
measurement_label = "log10 IC50"
assay_value = 1.34

[[record]]
compound = "N#Cc1cc(-c2ncnc(Nc3ccc(N4CCN(C5COC5)CC4)cc3)n2)ccc1O[C@H]1CCN(C(=O)C(O)CO)CC1(F)F (stereo partly drawn)"
measurement_label = "log10 IC50"
assay_value = 0.00

[[record]]
compound = "N#Cc1cc(-c2ncnc(Nc3ccc(N4CCN(C5COC5)CC4)cc3)n2)ccc1O[C@H]1CCN(C(=O)[C@@H]2C[C@H](O)CN2)C[C@H]1F"
measurement_label = "log10 IC50"
assay_value = 1.69

[[record]]
compound = "CC1(C)CN(C(=O)[C@@H]2CCC(=O)N2)C[C@@H](F)[C@H]1Oc1ccc(-c2ncnc(Nc3ccc(N4CCN(C5COC5)CC4)cc3)n2)cc1C#N"
measurement_label = "log10 IC50"
assay_value = 0.70

[[record]]
compound = "CC(C)[C@@H](O)C(=O)N1CC[C@H](Oc2ccc(-c3ncnc(Nc4ccc(N5CCN(C6COC6)CC5)cc4)n3)cc2C#N)[C@H](F)C1"
measurement_label = "log10 IC50"
assay_value = 2.56

[[record]]
compound = "N#Cc1cc(-c2ncnc(Nc3ccc(N4CCN(C5COC5)CC4)cc3)n2)ccc1OCCC1CNC(=O)C1 (stereo not drawn)"
measurement_label = "log10 IC50"
assay_value = 2.12

[[record]]
compound = "CN1CC(Oc2ccc(-c3ncnc(Nc4ccc(N5CCN(C6COC6)CC5)cc4)n3)cc2C#N)CCC1=O (stereo not drawn)"
measurement_label = "log10 IC50"
assay_value = 2.19

[[record]]
compound = "N#Cc1cc(-c2ncnc(Nc3ccc(N4CCN(C5COC5)CC4)cc3)n2)ccc1O[C@H]1CCN(C(=O)N2CC[C@@H](F)C2)C[C@H]1F"
measurement_label = "log10 IC50"
assay_value = 1.74

[[record]]
compound = "CC1(C)CN(C(=O)[C@@H]2CCC(=O)N2)C[C@H](F)[C@@H]1Oc1ccc(-c2ncnc(Nc3ccc(N4CCN(C5COC5)CC4)cc3)n2)cc1C#N"
measurement_label = "log10 IC50"
assay_value = 1.94

[[record]]
compound = "N#Cc1cc(-c2ncnc(Nc3ccc(N4CCN(C5COC5)CC4)cc3)n2)ccc1O[C@H]1CCN(Cc2nc(=O)[nH][nH]2)C[C@H]1F"
measurement_label = "log10 IC50"
assay_value = 2.00

[[record]]
compound = "CC(C#N)C(=O)N1CC[C@H](Oc2ccc(-c3ncnc(Nc4ccc(N5CCN(C6COC6)CC5)cc4)n3)cc2C#N)[C@H](F)C1 (stereo partly drawn)"
measurement_label = "log10 IC50"
assay_value = 1.45

[[record]]
compound = "COc1cc(Nc2ncnc(-c3ccc(O[C@H]4CCN(C(=O)CCO)C[C@H]4F)c(C#N)c3)n2)ccc1N1CCN(C2COC2)CC1"
measurement_label = "log10 IC50"
assay_value = 0.78

[[record]]
compound = "C[C@H]1C[C@H](Oc2ccc(-c3ncnc(Nc4ccc(N5CCN(C6COC6)CC5)cc4)n3)cc2C#N)[C@H](F)CN1C(=O)[C@@H]1CCC(=O)N1"
measurement_label = "log10 IC50"
assay_value = 2.09

[[record]]
compound = "N#Cc1cc(-c2ncnc(Nc3ccc(N4CCN(C5COC5)CC4)cc3)n2)ccc1O[C@H]1CCN(C(=O)N2CC[C@@H](O)C2)C[C@H]1F"
measurement_label = "log10 IC50"
assay_value = 1.32

[[record]]
compound = "C[C@H](O)C(=O)N1CC[C@H](Oc2ccc(-c3ncnc(Nc4ccc5c(c4)NCCO5)n3)cc2C#N)[C@H](F)C1"
measurement_label = "log10 IC50"
assay_value = 0.00

[[record]]
compound = "COc1cc(Nc2ncnc(-c3ccc(O[C@H]4CCN(C(=O)[C@@H](O)CO)CC4(F)F)c(C#N)c3)n2)ccc1N1CCN(C2COC2)CC1"
measurement_label = "log10 IC50"
assay_value = 0.00

[[record]]
compound = "C[C@H](O)C(=O)N1CC[C@H](Oc2ccc(-c3ncnc(Nc4ccc(N5CCN(C6COC6)[C@@H](CO)C5)cc4)n3)cc2C#N)[C@H](F)C1"
measurement_label = "log10 IC50"
assay_value = 0.30

[[record]]
compound = "Cn1cc(C(=O)N2C[C@@H](F)[C@@H](Oc3ccc(-c4ncnc(Nc5ccc(N6CCN(C7COC7)CC6)cc5)n4)cc3C#N)C(C)(C)C2)nn1"
measurement_label = "log10 IC50"
assay_value = 0.30

[[record]]
compound = "C[C@H](O)C(=O)N1C[C@@H](C)[C@H](Oc2ccc(-c3ncnc(Nc4ccc(N5CCN(C6COC6)CC5)cc4)n3)cc2C#N)C(F)(F)C1"
measurement_label = "log10 IC50"
assay_value = 1.23

[[record]]
compound = "C[C@H](O)C(=O)N1CC[C@H](Oc2ccc(-c3ncnc(Nc4cn(C)nc4CO)n3)cc2C#N)[C@H](F)C1"
measurement_label = "log10 IC50"
assay_value = 2.04

[[record]]
compound = "CC1(C)CN(C(=O)CCO)C[C@@H](F)[C@H]1Oc1ccc(-c2ncnc(Nc3ccc(N4CCN(C5COC5)CC4)cc3)n2)cc1C#N"
measurement_label = "log10 IC50"
assay_value = 0.78

[[record]]
compound = "N#Cc1cc(-c2ncnc(Nc3ccc(N4CCN(C5COC5)CC4)cc3)n2)ccc1O[C@H]1CCN(C(=O)[C@@H]2CSC(=O)N2)CC1(F)F"
measurement_label = "log10 IC50"
assay_value = 0.00

